Values were extracted from patent US20040254189A1.

propertyMeasured: melting point

Solved entries (count: 5):
Cc1c(C(C)(C)C(=O)O)nc2ccc(NCCCN3CCC(OC(c4ccccc4)c4ccccc4)CC3)nn12 = 219 to 220 °C
CC(C)(C(=O)O)c1cn2nc(NCCCN3CCC(OC(c4ccccc4)c4ccccc4)CC3)ccc2n1.O.O (hydrate or solvate) = 203 to 205 °C
CC(C)(C(=O)O)n1nc2ccc(NCCCN3CCC(OC(c4ccccc4)c4ccccc4)CC3)nn2c1=O (hydrate or solvate) = 181 to 185 °C
CC(C)(C(=O)O)c1cn2nc(NCCCN3CCC(OC(c4ccccc4)c4ccccc4)CC3)ccc2n1 = 205 to 206 °C
CCOC(=O)C(C)(C)n1nc2ccc(NCCCN3CCC(OC(c4ccccc4)c4ccccc4)CC3)nn2c1=O.Cl = 162 °C

Next:
Look at this compound and give its reported melting point. `CCOC(=O)C(C)(C)c1cn2nc(NCCCN3CCC(NC(c4ccccc4)c4ccccc4)CC3)ccc2n1`
115 to 117 °C
